This collection of values is drawn from paper PMC7765920.

System name: GST-DYRK1A-ΔC (amino acids 1–499 of rat DYRK1A) (Rattus norvegicus)
Construct: containing amino acids 1–499 of rat DYRK1A; made in house; host or cells: E. coli
Assay details: Kinase-GLO luminescent assay of DYRK1A catalytic activity
Format: biochemical
Assay context: read-out: DYRK1A residual activity
For each record, write down the corresponding remaining activity at 1 µM.
One number for each entry, in %.

Recorded results for 3 compounds are shown here.
{"Compound": "Cc1nccc2c1[nH]c1ccccc12 [harmane, reference compound]", "Unit label": "%", "remaining activity at 1 µM": 97}
{"Compound": "Cc1nccc2c3ccc(Cl)c(Cl)c3n(CC#N)c12", "Unit label": "%", "remaining activity at 1 µM": 17}
{"Compound": "COc1ccc2c3ccnc(C)c3n(CC=C(C)C)c2c1", "Unit label": "%", "remaining activity at 1 µM": 6}

State the recorded remaining activity at 1 µM for every item in the following list.
1. COc1ccc2c(c1)[nH]c1c(C)nccc12
2. CCOC(=O)CCn1c2cc(OC)ccc2c2ccnc(C)c21
3. COc1ccc2c3ccnc(Cl)c3n(CC#N)c2c1

Completion:
[27, 12, 10]
